assaySystem: T1, IL13RA2 Protein, Human, Recombinant (ECD)-His tag (human, UniProt Q14627 27-343)
T1 construct: extracellular domain; also called human recombinant protein extracellular domain; human IL13Ra2-His6
T1 sequence: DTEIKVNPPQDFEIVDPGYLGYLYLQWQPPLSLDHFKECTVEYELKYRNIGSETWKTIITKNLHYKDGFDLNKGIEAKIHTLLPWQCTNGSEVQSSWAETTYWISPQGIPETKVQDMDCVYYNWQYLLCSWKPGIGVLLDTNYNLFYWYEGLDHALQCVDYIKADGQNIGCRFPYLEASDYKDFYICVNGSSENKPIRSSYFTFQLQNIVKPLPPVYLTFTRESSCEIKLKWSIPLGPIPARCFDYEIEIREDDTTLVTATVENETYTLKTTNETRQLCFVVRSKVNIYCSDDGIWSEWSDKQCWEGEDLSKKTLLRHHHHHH
experimentalProtocol: BLI; biotinylated VHH captured on streptavidin biosensor, antigen 1 uM in solution
valueKind: koff (s⁻¹)
Reply numerically in s⁻¹, unit not repeated.

Below, 2 binders whose answers are already recorded.
VH36f1 (VHH, biotinylated (site not stated), Expressed in E. coli and 6xHIS purified; also called VH36f1 Biotin; Anti-IL13Rα2 VH36) VHH: QVQLQESGGGSVQPGGSLRLSCAASGINISSDVMEWFRQGPGEQRELVAHITTNSRTEYADFVKGRFTISRANAKNTLYLQMNGLKPEDTALYYCALRRGGRILWGQGTQVTVSS : 0.000133
VH57f5 (VHH, biotinylated (site not stated), Expressed in E. coli and 6xHIS purified; also called VH57f5 Biotin; Anti-IL13Rα2 VH57) VHH: QVQLQESGGGLVQPGGSLRLSCAASGSIFNTNGMGWYRQAPGKQRERVAGISSGGNTVYAASVEGRFTISRDNAKNTGYLQMNNLKPEDTAVYYCRVAGRQDDYWGQGTQVTVSS : 0.000397

Let us move to another entry and its koff.
Task: Give the measured koff for IL13Ra2_2TIG4_f3 (VHH, biotinylated (site not stated), Expressed in E. coli and 6xHIS purified; also called IL13Ra2_2TIG4_f3-Biotin) VHH: QVQLQESGGGLVQPGGSLRLSCAASGRTYGMGWFRQAPGKEREFVAVGVWSSGNTYYADFARGRFTISRDNAKNTVYLQMDSLKPEDTAVYYCAAPRYSSYTTYHAAYDYWGPGTQVTVSS
Result: 0.000697

Where these numbers come from: patent US20250090663A1
